test system: MCF-7 cells; experiment: Cell proliferation, Casy cell counting, MCF-7; assay type: cell-based, human; details: Homo sapiens, MCF7; MCF-7, 48 h, steroid-deprived; read-out: IC50 (inhibition of cell growth)
pIC50: −log10 of the molar value.
Quantity kind: pIC50

compound="Oc1ccc(/C=C/c2cc(O)cc(O)c2)cc1 [RES, 3,5,4′-trihydroxy-trans-stilbene]" system_under_test="MCF-7 cells" measured_result=4.43

###

system: steroid metabolism in MCF-7 cells; test: Inhibition of steroid metabolism by RES in MCF-7 cells (LC–HRMS); conditions: MCF-7, 5 μM RES
Known Km of a selection of compounds
Quantity kind: Km (µM)

compound="C[C@]12CC[C@@H]3c4ccc(O[C@@H]5O[C@H](C(=O)O)[C@@H](O)[C@H](O)[C@H]5O)cc4CC[C@H]3[C@@H]1CC[C@@H]2O [E2-G, 17β-estradiol-3-O-(β-D-glucuronide)]" system_under_test="steroid metabolism in MCF-7 cells" quantity_kind=Km measured_result=0.135
compound=C[C@]12CC[C@H]3[C@@H](CCC4=CC(=O)CC[C@@]43C)[C@@H]1CC[C@@H]2O system_under_test="steroid metabolism in MCF-7 cells" quantity_kind=Km measured_result=0.107
compound="C[C@]12CC[C@@H]3c4ccc(OS(=O)(=O)O)cc4CC[C@H]3[C@@H]1CCC2=O [E1-S, estrone-3-O-sulfate]" system_under_test="steroid metabolism in MCF-7 cells" quantity_kind=Km measured_result=0.094
compound="C[C@]12CC[C@@H]3c4ccc(OS(=O)(=O)O)cc4CC[C@H]3[C@@H]1CC[C@@H]2O [E2-S, 17β-estradiol-3-O-sulfate]" system_under_test="steroid metabolism in MCF-7 cells" quantity_kind=Km measured_result=0.106
compound=C[C@]12CCC(=O)C=C1CC[C@@H]1[C@@H]2CC[C@]2(C)C(=O)CC[C@@H]12 system_under_test="steroid metabolism in MCF-7 cells" quantity_kind=Km measured_result=0.104
compound="C[C@]12CC[C@H](OS(=O)(=O)O)CC1=CC[C@@H]1[C@@H]2CC[C@]2(C)C(=O)CC[C@@H]12 [DHEA-S, dehydroepiandrosterone-3-O-sulfate]" system_under_test="steroid metabolism in MCF-7 cells" quantity_kind=Km measured_result=0.312
compound="C[C@]12CC[C@@H]3c4ccc(O)cc4CC[C@H]3[C@@H]1CC[C@@H]2O [E2, 17β-estradiol]" system_under_test="steroid metabolism in MCF-7 cells" quantity_kind=Km measured_result=0.146

Ref: paper PMC6048268
